From: ChEMBL document CHEMBL1208778

test system: HCC 2998; experiment: Growth inhibition of human HCC2998 cells; assay type: functional
For each of the molecules below, state its GI50.
Your answer should be a plain number; it is taken to be in nM.

Record "COc1ccc(-c2cn(-c3cccc(C(=O)/C=C/c4cc(OC)c(OC)c(OC)c4)c3)c(=O)[nH]2)cc1" ; system HCC 2998; GI50 = 1640

The reported GI50 value, HCC 2998, for "COc1cc(/C=C/C(=O)c2cccc(-n3cc(-c4ccc(Cl)cc4)[nH]c3=O)c2)ccc1O" reads 1850

The molecule "COc1ccc(-c2cn(-c3cccc(C(=O)/C=C/c4ccc(O)c(OC)c4)c3)c(=O)[nH]2)cc1" , tested on HCC 2998, showed GI50 of 2320

So the reported GI50 for "O=C(/C=C/c1cccc(O)c1)c1cccc(-n2cc(-c3ccccc3)[nH]c2=O)c1" , on HCC 2998, turned out to be 4090

Tested on HCC 2998: "COc1cc(/C=C/C(=O)c2cccc(-n3cc(-c4ccc(Cl)cc4)[nH]c3=O)c2)cc(OC)c1OC" . Observed GI50: 2460

Per the reported HCC 2998 data, "O=C(/C=C/c1cccc(O)c1)c1cccc(-n2cc(-c3ccc(Cl)cc3)[nH]c2=O)c1" has GI50 of 13700

Record "COc1cc(/C=C/C(=O)c2cccc(-n3cc(-c4ccccc4)[nH]c3=O)c2)cc(OC)c1OC" has HCC 2998 GI50 equal to 1260

Response field GI50 (HCC 2998) for item "COc1cc(/C=C/C(=O)c2cccc(-n3cc(-c4cc(OC)c(OC)c(OC)c4)[nH]c3=O)c2)cc(OC)c1OC" : 1920

Entry "COc1cc(/C=C/C(=O)c2cccc(-n3cc(-c4ccccc4)[nH]c3=O)c2)ccc1O" , tested on HCC 2998, has a reported GI50 of 1510
